Below, each entry is listed alongside its reported pEC50.
- Experimental target: human cannabinoid receptor type 2 (Homo sapiens)
- Construct: expressed in transfected cells; membrane preparation
- Protocol text: Human CB2 Radioligand Binding Assay
- Condition details: competition with [3H] CP-55,940; membranes from stably transfected CHO CB2 cells; read-out: CB2 Ligand Binding Asssay EC50
pEC50: −log10 of the molar value.

CCOC(=O)N1CCN(c2nc(-c3ccc(Cl)cc3)nc3ccc(Cl)cc23)CC1 :: < 6.00
COc1ccc2nc(-c3ccc(C(C)(C)C)cc3)nc(N3CCCC3)c2c1 :: > 6.00

Q: Field request: pEC50 | item: CC(C)(C)c1ccc2nc(-c3ccccc3Cl)nc(N3CCCCC3)c2c1
A: > 6.00

Q: May I ask what pEC50 has been recorded for CCC(=O)N1CCN(c2nc(-c3ccccc3Cl)nc3ccccc23)CC1 ?
A: > 6.00

Q: Look up pEC50: C[C@@H]1CN(c2nc(-c3ccccc3Cl)nc3ccccc23)C[C@H](C)N1C
A: > 6.00

Q: What value of measured pEC50 is listed for Fc1ccccc1-c1nc(N2CCCC2)c2c(F)cccc2n1 ?
A: > 6.00

###

Measured pEC50 of individual entries
- Experimental target: human cannabinoid receptor type 2 (Homo sapiens, UniProt P34972)
- Construct: expressed in transfected cells; membrane preparation
- Sequence (P34972 whole entry): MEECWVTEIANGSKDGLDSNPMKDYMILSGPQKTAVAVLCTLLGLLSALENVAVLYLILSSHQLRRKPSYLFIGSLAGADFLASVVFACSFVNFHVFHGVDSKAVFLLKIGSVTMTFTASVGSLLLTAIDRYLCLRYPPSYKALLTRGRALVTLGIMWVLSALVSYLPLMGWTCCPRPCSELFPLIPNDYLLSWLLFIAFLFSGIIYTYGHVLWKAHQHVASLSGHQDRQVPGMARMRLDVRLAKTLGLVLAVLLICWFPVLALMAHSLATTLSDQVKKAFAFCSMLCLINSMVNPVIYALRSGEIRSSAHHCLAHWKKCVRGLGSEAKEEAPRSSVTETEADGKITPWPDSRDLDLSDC
- Protocol text: Human CB2 Radioligand Binding Assay
- Condition details: competition with [3H] CP-55,940; membranes from stably transfected CHO CB2 cells; read-out: CB2 Ligand Binding Asssay EC50
pEC50: −log10 of the molar value.

c1ccc2c(N3CCCC3)nc(C3CCCCC3)nc2c1 :: > 6.00

Q: Lab note: need pEC50 for c1ccc2c(N3CCOCC3)nc(C3CCCC3)nc2c1 on human cannabinoid receptor type 2 (Homo sapiens, UniProt P34972), anyone have it?
A: < 6.00

Q: Request: pEC50, test system human cannabinoid receptor type 2 (Homo sapiens, UniProt P34972), entry CC(C)(C)c1ccc2c(N3CCCC3)nc(Nc3cccc(Cl)c3)nc2c1
A: > 6.00

Q: Provide value of pEC50 for this record tested with human cannabinoid receptor type 2 (Homo sapiens, UniProt P34972): COC(=O)N1CCN(c2nc(-c3ccccc3Cl)nc3ccccc23)CC1 [Example 92]
A: < 6.00

Q: What is its pEC50 for human cannabinoid receptor type 2 (Homo sapiens, UniProt P34972)? Entry: CC1CCN(c2nc(-c3ccccc3Cl)nc3ccccc23)CC1
A: > 6.00

###

Below is a list of entries, each paired with its recorded pEC50 value.
- Experimental target: human cannabinoid receptor type 2 (Homo sapiens, UniProt P34972)
- Construct: expressed in transfected cells; membrane preparation
- Protocol text: Human CB2 Radioligand Binding Assay
- Condition details: competition with [3H] CP-55,940; membranes from stably transfected CHO CB2 cells; read-out: CB2 Ligand Binding Asssay EC50
pEC50: −log10 of the molar value.

Example entries and their recorded answers appear below.
CCOC(=O)N1CCN(c2nc(-c3ccccc3Cl)nc3cccc(C(F)(F)F)c23)CC1 :: > 6.00
Clc1ccccc1-c1nc(N2CCCC2)c2c(Cl)cccc2n1 :: > 6.00

Q: pEC50 lookup needed for Clc1ccccc1-c1nc(N2CCNCC2)c2c(Cl)cccc2n1 , thanks.
A: < 6.00

FYI, the data here is from patent US20090209536A1.
